These entries and their values trace back to patent US9624166B2.

- Tested on: S. aureus ATCC 13709 (Smith)
- assay overview: Murine systemic infection (septicemia) model with intraperitoneal challenge of S. aureus
- Type: in vivo
- assay conditions: CD-1 female mice, i.v. one hour post-challenge, SA Smith septicemia, survival after 48 hours, Probit analysis
property label: PD50 (protective dose 50%, dose effecting 50% survival)

>  <compound>
COc1cc(NS(=O)(=O)CC(C)C)c(O)c2c1C[C@H]1C[C@H]3[C@H](N(C)C)C(O)=C(C(N)=O)C(=O)[C@@]3(O)C(O)=C1C2=O [Compound 166]

>  <test system>
S. aureus ATCC 13709 (Smith)

>  <observed>
4.3 mg/kg

$$$$
>  <compound>
COc1cc(NC(=O)CN(C)C)c(O)c2c1C[C@H]1C[C@H]3[C@H](N(C)C)C(O)=C(C(N)=O)C(=O)[C@@]3(O)C(O)=C1C2=O [Compound 105]

>  <test system>
S. aureus ATCC 13709 (Smith)

>  <observed>
0.25 mg/kg

$$$$
>  <compound>
CN(C)[C@@H]1C(O)=C(C(N)=O)C(=O)[C@@]2(O)C(O)=C3C(=O)c4c(O)cccc4[C@@](C)(O)[C@H]3C[C@@H]12 [Tetracycline, tetracycline]

>  <test system>
S. aureus ATCC 13709 (Smith)

>  <observed>
1.0 mg/kg

$$$$
>  <compound>
CCN(C)CC(=O)Nc1cc(OC(F)(F)F)c2c(c1O)C(=O)C1=C(O)[C@]3(O)C(=O)C(C(N)=O)=C(O)[C@@H](N(C)C)[C@@H]3C[C@@H]1C2 [Compound 218]

>  <test system>
S. aureus ATCC 13709 (Smith)

>  <observed>
1.4 mg/kg

$$$$
>  <compound>
COc1cc(NS(=O)(=O)c2ccccc2)c(O)c2c1C[C@H]1C[C@H]3[C@H](N(C)C)C(O)=C(C(N)=O)C(=O)[C@@]3(O)C(O)=C1C2=O [Compound 153]

>  <test system>
S. aureus ATCC 13709 (Smith)

>  <observed>
>10 mg/kg

$$$$
>  <compound>
COc1cc(NC(=O)CN2CCCC2)c(O)c2c1C[C@H]1C[C@H]3[C@H](N(C)C)C(O)=C(C(N)=O)C(=O)[C@@]3(O)C(O)=C1C2=O [Compound 101]

>  <test system>
S. aureus ATCC 13709 (Smith)

>  <observed>
0.36 mg/kg

$$$$
>  <compound>
CN(C)c1cc(NC(=O)CNC(C)(C)C)c(O)c2c1C[C@H]1C[C@H]3[C@H](N(C)C)C(O)=C(C(N)=O)C(=O)[C@@]3(O)C(O)=C1C2=O [Tigecycline, tigecycline]

>  <test system>
S. aureus ATCC 13709 (Smith)

>  <observed>
0.97 mg/kg

$$$$
